Reported IC50 values for the following molecules.
tested on: H; test: Crystal violet cell growth assay, H; assay type: cell-based; conditions: read-out: Cr. Violet (IC50)
Hi! Could you send only the number? It should be in µg/mL, unit omitted.

- molecule: "CCCCCCCCC1(C)SC(=O)C=C1OCC(=O)NNc1ccccc1 (stereo not drawn)"
  test.target: "H"
  reading.unit: "µg/mL"
  IC50: 8.4
- molecule: "CCCCCCCCC1(C)SC(=O)C=C1OCC(=O)NNc1ccc(C(F)(F)F)cc1 (stereo not drawn)"
  test.target: "H"
  reading.unit: "µg/mL"
  IC50: 4.8

Next, consider the following molecule.
Form: molecule = CCCCCCCCC1(C)SC(=O)C=C1OCC(=O)NNc1cccc(C)c1 (stereo not drawn) ; IC50 = 21.9
